Target: T1, soluble human Lag3-IgG1-Fc with biotinylated C-terminal Avi-tag (human, biotin on the C-terminal Avi-tag)
T1 construct: also called LAG3-Fc-avi; biotinylated LAG3-Fc antigen
T1 sequence (chain, as listed by the source limits assumed): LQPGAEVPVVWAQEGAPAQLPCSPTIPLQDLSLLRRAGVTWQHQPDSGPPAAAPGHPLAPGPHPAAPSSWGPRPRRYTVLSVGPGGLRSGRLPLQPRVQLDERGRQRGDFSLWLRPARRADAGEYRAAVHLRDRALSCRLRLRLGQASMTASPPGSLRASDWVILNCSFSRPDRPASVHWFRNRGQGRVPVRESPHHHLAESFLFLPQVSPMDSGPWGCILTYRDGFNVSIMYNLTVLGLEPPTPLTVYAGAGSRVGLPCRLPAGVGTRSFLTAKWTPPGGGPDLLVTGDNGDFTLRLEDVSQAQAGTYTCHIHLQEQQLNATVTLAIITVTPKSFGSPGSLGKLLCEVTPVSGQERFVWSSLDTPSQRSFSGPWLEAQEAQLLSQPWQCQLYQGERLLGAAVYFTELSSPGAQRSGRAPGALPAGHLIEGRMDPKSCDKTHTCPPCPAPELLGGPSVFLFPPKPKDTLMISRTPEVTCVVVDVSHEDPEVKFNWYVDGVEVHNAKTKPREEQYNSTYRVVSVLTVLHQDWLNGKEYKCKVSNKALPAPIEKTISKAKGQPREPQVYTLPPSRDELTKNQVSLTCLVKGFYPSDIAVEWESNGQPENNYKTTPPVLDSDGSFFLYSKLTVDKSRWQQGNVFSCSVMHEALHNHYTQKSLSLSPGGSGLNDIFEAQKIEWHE
Experiment: SPR (ProteOn XPR36), biotinylated LAG3-Fc captured on NLC chip, purified aVH as analyte, 25 C;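 note: One-shot kinetics in PBST running buffer, rates fitted by 1:1 Langmuir model fitting association and dissociation together, KD as koff/kon, biotinylated Fc surface as negative control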
Observed property: koff (s⁻¹)
Numbers only, in s⁻¹.

// worked examples, koff included
- Binder: "LAG3 9B4 aVH domain (VHH) VHH: EVQLVESGGGLVQPGGSLRLSCAASGFNIKDTCIGWVRRAPGKGTELVAEICQDIGYTRYADSVKGRFTISADTSKNTAYLQMNSLRAEDTAVYYCAAVEVAEYFEYWGQGTTVTVSS"
  Observed property: "koff"
  Assay value: 0.00314
- Binder: "LAG3 P11E9 aVH domain (VHH) VHH: EVQLVESGGGLVQPGGSLRLSCAASGFNIKDTCIGWVRRAPGKGTELVAEICHDIGYTRYADSVKGRFTISADTSKNTAYLQMNSLRAEDTAVYYCAAEEHVASFEYWGQGTTVTVSS"
  Observed property: "koff"
  Assay value: 0.000656

Here's the next entry for you.
# input Answer with reported koff of LAG3 P10D1 aVH domain (VHH, also called P110D1) VHH: EVQLVESGGGLVQPGGSLRLSCAASGFSIKDTCIAWVRRAPGKGTELVAEICEDIGYTRYADSVKGRFTISADTSKNTAYLQMNSLRAEDTAVYYCAAKEAGVGFDYWGQGTTVTVSS
# output 0.00383

These data points were gathered from patent US20200354457A1.
